Form field: surviving fraction (one value per entry).
# Test system: E28 (patient-derived glioblastoma stem cells of classical subtype)
# protocolText: surviving fraction (nuclei count normalised to DMSO); higher = more cells surviving (less toxic);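 also: nuclei counted by high-content imaging of Hoechst-stained cells in laminin-coated 384-well plates, relative to 0.1% DMSO vehicle wells, with staurosporine as cell-death control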
# conditionInfo: 4.1 nM; exposure time: 72 h
observedProperty: surviving fraction

[[record]]
compound = "COC(=O)C1=C(C)NC(C)=C(C(=O)OCC(C)C)C1c1ccccc1[N+](=O)[O-] (centres undefined) [Nisoldipine]"
observedproperty = "surviving fraction"
datavalue = 0.944

[[record]]
compound = "CCc1c2c(nc3ccc(OC(=O)N4CCC(N5CCCCC5)CC4)cc13)-c1cc3c(c(=O)n1C2)COC(=O)[C@]3(O)CC [Irinotecan]"
observedproperty = "surviving fraction"
datavalue = 1.21

[[record]]
compound = "Cc1ccc2c(c1)C1(CCN(CCc3nc(-c4ccccc4)oc3C)CC1)OC(=O)N2"
observedproperty = "surviving fraction"
datavalue = 1.07

[[record]]
compound = "CC(C)C[C@H](NC(=O)CNC(=O)c1cc(Cl)ccc1Cl)B(O)O [Ixazomib]"
observedproperty = "surviving fraction"
datavalue = 0.582


###

Form field: surviving fraction (one value per entry).
# Test system: E21 (patient-derived glioblastoma stem cells of mesenchymal subtype)
# protocolText: surviving fraction (nuclei count normalised to DMSO); higher = more cells surviving (less toxic)
# conditionInfo: 111.1 nM; exposure time: 72 h
Counter-ions that a name gives are not always drawn.
observedProperty: surviving fraction

[[record]]
compound = "C[C@@]12C(=O)OC(=O)[C@]1(C)[C@H]1CC[C@@H]2O1"
studysystem = "E21"
observedproperty = "surviving fraction"
datavalue = 0.819

[[record]]
compound = "Nc1ccn([C@@H]2O[C@H](CO)[C@@H](O)[C@@H]2O)c(=O)n1"
studysystem = "E21"
observedproperty = "surviving fraction"
datavalue = 0.533

[[record]]
compound = "C[C@]12CC[C@H](O)C[C@H]1CC[C@@H]1[C@@H]2C[C@@H](O)[C@]2(C)[C@@H](C3=CC(=O)OC3)CC[C@]12O"
studysystem = "E21"
observedproperty = "surviving fraction"
datavalue = 0.887

[[record]]
compound = "CCN(CC)Cc1ccc(C(=O)N(CCc2ccccc2OC)[C@@H]2CCNC2)cc1"
studysystem = "E21"
observedproperty = "surviving fraction"
datavalue = 0.952

[[record]]
compound = "CC(C)C(=O)OCC(=O)[C@@]12O[C@H](C3CCCCC3)O[C@@H]1C[C@H]1[C@@H]3CCC4=CC(=O)C=C[C@]4(C)[C@H]3[C@@H](O)C[C@@]12C [Ciclesonide]"
studysystem = "E21"
observedproperty = "surviving fraction"
datavalue = 1.17

[[record]]
compound = "CC(C)(Oc1ccc(C2CC2(Cl)Cl)cc1)C(=O)O (configuration not stated) [Ciprofibrate]"
studysystem = "E21"
observedproperty = "surviving fraction"
datavalue = 0.962

[[record]]
compound = "CN[C@@H]1[C@@H](O)[C@@H](O[C@@H]2[C@@H](O)[C@H](O[C@H]3OC(CN)=CC[C@H]3N)[C@@H](N)C[C@H]2N)OC[C@]1(C)O [Sisomicin sulfate]"
studysystem = "E21"
observedproperty = "surviving fraction"
datavalue = 0.966


###

# Test system: E31 (patient-derived glioblastoma stem cells of proneural subtype)
# protocolText: surviving fraction (nuclei count normalised to DMSO); higher = more cells surviving (less toxic)
# conditionInfo: 111.1 nM; exposure time: 72 h
observedProperty: surviving fraction

[[record]]
inputsmiles = "COc1cc2c(c(OC)c1OC)-c1ccc(OC)c(=O)cc1[C@@H](NC(C)=O)CC2"
observedproperty = "surviving fraction"
datavalue = 0.0362

[[record]]
inputsmiles = "CN(c1nccc(=O)[nH]1)C1CCN(c2nc3ccccc3n2Cc2ccc(F)cc2)CC1"
observedproperty = "surviving fraction"
datavalue = 1.19

[[record]]
inputsmiles = "C#C[C@]1(O)CC[C@H]2[C@@H]3CCc4cc(OC5CCCC5)ccc4[C@H]3CC[C@@]21C"
observedproperty = "surviving fraction"
datavalue = 1.07

[[record]]
inputsmiles = "CC(C)CC(=O)N[C@H](C(=O)N[C@H](C(=O)N[C@@H](CC(C)C)[C@@H](O)CC(=O)N[C@@H](C)C(=O)N[C@@H](CC(C)C)[C@@H](O)CC(=O)O)C(C)C)C(C)C"
observedproperty = "surviving fraction"
datavalue = 0.89

[[record]]
inputsmiles = "O=C1CC[C@@H](C(=O)N2CSC[C@H]2C(=O)O)N1"
observedproperty = "surviving fraction"
datavalue = 1.11

[[record]]
inputsmiles = "N=C(NCCCCCCNC(=N)NC(=N)Nc1ccc(Cl)cc1)NC(=N)Nc1ccc(Cl)cc1"
observedproperty = "surviving fraction"
datavalue = 1.04

[[record]]
inputsmiles = "COc1cc2ncnc(Nc3cccc(Br)c3)c2cc1OC"
observedproperty = "surviving fraction"
datavalue = 0.837

[[record]]
inputsmiles = "C[C@H]1Oc2cc(cnc2N)-c2c(nn(C)c2C#N)CN(C)C(=O)c2ccc(F)cc21"
observedproperty = "surviving fraction"
datavalue = 0.986


Each recorded value in this set is attributed to the supplement of paper PMC13207355.
